# MEASURED_TARGET: EPHB1 (UniProt P54762)
# Sequence (P54762 whole entry, looked up): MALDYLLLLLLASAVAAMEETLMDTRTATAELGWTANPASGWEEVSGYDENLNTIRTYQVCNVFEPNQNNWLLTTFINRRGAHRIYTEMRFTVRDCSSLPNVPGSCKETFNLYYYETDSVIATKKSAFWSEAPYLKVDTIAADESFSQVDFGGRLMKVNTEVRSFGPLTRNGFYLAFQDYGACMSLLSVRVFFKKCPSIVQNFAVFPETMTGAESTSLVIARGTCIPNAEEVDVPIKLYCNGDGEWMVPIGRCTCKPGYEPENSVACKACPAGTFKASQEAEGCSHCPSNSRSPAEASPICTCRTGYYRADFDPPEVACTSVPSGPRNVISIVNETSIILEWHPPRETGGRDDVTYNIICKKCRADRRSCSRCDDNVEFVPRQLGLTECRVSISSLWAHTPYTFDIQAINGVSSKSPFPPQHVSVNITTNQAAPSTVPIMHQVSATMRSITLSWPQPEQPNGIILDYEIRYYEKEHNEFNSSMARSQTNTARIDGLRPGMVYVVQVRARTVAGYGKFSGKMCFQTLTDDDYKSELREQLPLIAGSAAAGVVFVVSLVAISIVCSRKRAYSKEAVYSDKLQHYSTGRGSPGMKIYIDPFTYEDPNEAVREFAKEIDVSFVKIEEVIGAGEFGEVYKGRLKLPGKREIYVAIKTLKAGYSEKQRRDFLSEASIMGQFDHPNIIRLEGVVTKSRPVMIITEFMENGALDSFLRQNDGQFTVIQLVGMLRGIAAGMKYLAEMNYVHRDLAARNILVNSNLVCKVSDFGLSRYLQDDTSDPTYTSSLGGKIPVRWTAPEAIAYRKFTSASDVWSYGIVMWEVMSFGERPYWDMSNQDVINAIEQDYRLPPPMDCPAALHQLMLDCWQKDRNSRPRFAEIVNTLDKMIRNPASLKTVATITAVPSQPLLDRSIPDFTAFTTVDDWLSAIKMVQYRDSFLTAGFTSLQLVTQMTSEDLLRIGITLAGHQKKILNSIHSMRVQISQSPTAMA
# ASSAY_PROCEDURE: phosphorylation enrichment, bacterial display (enrichment ratio); higher = better substrate or ligand; peptides without Tyr show the background;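 also: 11-residue human phosphosite peptides and single-mutation variants displayed on the E. coli surface, counted by deep sequencing, each peptide's frequency after selection divided by its frequency in the unselected input library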;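 also: frequency after pTyr selection over input frequency; kinase dosed for 20-30% of maximal phosphorylation in three min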
Classify as follows. Reported phosphorylation enrichment greater than or equal to 0.5: rule met. Reported phosphorylation enrichment below: rule not met.

Please review the following examples before continuing.
{"columns": ["CHAIN_SEQUENCE", "MEASURED_TARGET", "CAT"],
 "data": [
  ["NCFKFYMSDDI [ATRX_Y204_YF]", "EPHB1 (UniProt P54762)", "rule met"],
  ["ILTFKYLQKPM [KIT_Y547_YF]", "EPHB1 (UniProt P54762)", "rule met"],
  ["EIASHYRHLLR [ZBTB46_Y14_T11A]", "EPHB1 (UniProt P54762)", "rule not met"],
  ["CTTIYYNYMCN [TP53_Y234_H233Y]", "EPHB1 (UniProt P54762)", "rule met"],
  ["HHTDECEFDEL [TGM1_Y134_Y134C_YF]", "EPHB1 (UniProt P54762)", "rule not met"]
]}

Given the entry HRERPYGGGGG [FUS_Y526_R521H] , answer whether its phosphorylation enrichment meets or surpasses 0.5.
rule not met

Given the entry EEGRVYVFHLS [ITGAE_Y549_R552H_YF] , answer whether its phosphorylation enrichment meets or surpasses 0.5.
rule met

Given the entry KKLHEYNTQFQ [PIK3R1_Y452] , answer whether its phosphorylation enrichment meets or surpasses 0.5.
rule not met

Given the entry FDSPFYRDSLP [TSC1_Y508] , answer whether its phosphorylation enrichment meets or surpasses 0.5.
rule not met

Given the entry VDSNPYSHLMA [UBA5_Y53_R55H] , answer whether its phosphorylation enrichment meets or surpasses 0.5.
rule not met

Given the entry SSFDTYHLSRE [KIR3DL2_Y253_I252T_YF] , answer whether its phosphorylation enrichment meets or surpasses 0.5.
rule met

Given the entry SHKELYKWFTS [DYNC1H1_Y3051_E3048K] , answer whether its phosphorylation enrichment meets or surpasses 0.5.
rule met

Given the entry FEPDAYFDLDQ [ELP5_Y302_D303Y_YF] , answer whether its phosphorylation enrichment meets or surpasses 0.5.
rule met

Given the entry PDMHSYVVRFN [GRIN2D_Y732_M733V_YF] , answer whether its phosphorylation enrichment meets or surpasses 0.5.
rule met

Source listed as the supplement of paper PMC10065799.
